Reported pest or weed control at 125 g/ha values for a set of compounds
tested on: ryegrass, Italian (Italian ryegrass, Lolium multiflorum); test: Test A postemergence; assay type: in vivo; conditions: Lolium multiflorum, post-emergence, 240 h, Postemergence, 125 g ai/ha; visual injury after approx. 10 d; 0 to 100 scale, 0 no effect, 100 complete control; read-out: Plant response rating, Ryegrass, Italian
METRIC: pest or weed control at 125 g/ha (%)

1. CSc1ccccc1NC(=O)[C@H]1C(=O)N(C)C[C@@H]1c1ccc(C(F)(F)F)cc1	40
2. O=C1NC[C@H](c2cccc(C(F)(F)F)n2)[C@H]1C(=O)Nc1cccc(F)c1F	0
3. CN1C[C@H](c2cccc(C(F)(F)F)c2)[C@@H](C(=O)Nc2cccnc2F)C1=O	40
4. O=C1NC[C@H](c2cncc(C(F)(F)F)c2)[C@H]1C(=O)Nc1cccc(F)c1F	0

* * *

Reported melting point values for a set of molecules
METRIC: melting point

1. C=CCOc1cccc(C2CN(C)C(=O)C2C(=O)Nc2ccccc2F)c1 (centres unmarked)	81 to 84 °C
2. O=C1NC[C@H](c2cccc(C(F)(F)F)n2)[C@H]1C(=O)Nc1cccc(F)c1F	139 to 142 °C
3. CC(C)=CC1CNC(=O)C1C(=O)Nc1ccccc1S(C)(=O)=O (centres unmarked)	159 to 163 °C
4. O=C1NC[C@H](c2cccc(I)c2)[C@H]1C(=O)Nc1ccccc1F	161 to 164 °C
5. Cc1ccccc1NC(=O)[C@H]1C(=O)N(C)C[C@@H]1c1ccc(C(F)(F)F)cc1	123 to 127 °C
6. CN1CC(c2ccccc2OC(F)(F)C(F)F)C(C(=O)Nc2ccccc2F)C1=O (centres unmarked)	118 to 121 °C
7. CSc1ccccc1NC(=O)C1C(=O)NCC1C=C(C)C (centres unmarked)	100 to 104 °C
8. CN1C[C@H](c2nccs2)[C@@H](C(=O)Nc2cccc(F)c2F)C1=O	133.9 to 140.7 °C
9. O=C1NC[C@H](c2cncc(C(F)(F)F)c2)[C@H]1C(=O)Nc1ccccc1F	192 to 195 °C
10. O=C1NC[C@H](c2nccs2)[C@H]1C(=O)Nc1ccccc1F	123 to 127.7 °C
11. CN1C[C@H](c2ccc(C(F)(F)F)nc2)[C@@H](C(=O)Nc2cccc(F)c2F)C1=O	188.1 to 192.4 °C
12. O=C1NC[C@H](c2ccc(C(F)(F)F)cn2)[C@H]1C(=O)Nc1cccc(F)c1F	192 to 196 °C
13. CN1CC[C@H](c2cccc(C(F)(F)F)c2)[C@@H](C(=O)Nc2ccccc2F)C1=O	113 to 116 °C
14. CN1C[C@H](c2nccs2)[C@@H](C(=O)Nc2ccccc2F)C1=O	69.5 to 77 °C
15. O=C1NCC(c2ccccc2)C1C(=O)Nc1ccccc1 (centres unmarked)	180 to 181 °C
16. C=C(C)c1ccc([C@H]2CN(C)C(=O)[C@@H]2C(=O)Nc2ccc(F)c(F)c2F)cc1	132 to 136 °C
17. CN1CC(c2ccccc2OC(F)(F)C(F)F)C(C(=O)Nc2cccc(F)c2F)C1=O (centres unmarked)	130 to 134 °C
18. C=CCOc1cccc(C2CN(C)C(=O)C2C(=O)Nc2cccc(F)c2F)c1 (centres unmarked)	94 to 97 °C
19. O=C1NCC(c2cccc(I)c2)C1C(=O)Nc1ccccc1F (centres unmarked)	150 to 153 °C
20. CC(C)=CC1CNC(=O)C1C(=O)Nc1ccccc1F (centres unmarked)	136 to 140 °C
21. O=C1NCC(c2ccccc2OC(F)(F)C(F)F)C1C(=O)Nc1cccc(F)c1F (centres unmarked)	192 to 196 °C
22. N#Cc1ccc(NC(=O)C2C(=O)NCC2c2ccccc2)cc1 (centres unmarked)	186 to 188 °C
23. C=C(C)c1cccc([C@H]2CN(C)C(=O)[C@@H]2C(=O)Nc2ccc(F)c(F)c2F)c1	98 to 102 °C
